Examples of compounds with documented half-life follow.
# Protocol summary: Plasma half-life in 6-8 weeks old broiler chickens
# Assay type: ADME, organism-based, Gallus gallus
# Condition summary: chicken
Quick note: give the figure in h, leave out the unit.

Consider the reported half-life for these compounds:
Smiles code | half-life [h]
Cc1cc(-n2ncc(=O)[nH]c2=O)cc(Cl)c1S(=O)(=O)c1ccc(Cl)cc1 | 26
Cc1cc(-n2ncc(=O)[nH]c2=O)cc(C)c1Sc1ccc(Cl)cc1 | 16
O=c1cnn(-c2ccc(Sc3ccc(Cl)cc3)c(Cl)c2)c(=O)[nH]1 | 38
Cc1cc(-n2ncc(=O)[nH]c2=O)ccc1S(=O)(=O)c1ccc(Cl)cc1 | 14.5

Now look at this entry.
Record `O=c1cnn(-c2cc(Cl)c(Sc3ccc(Cl)cc3)c(Cl)c2)c(=O)[nH]1` , field half-life: 47

---

Attribute: half-life
# Protocol summary: Plasma half-life in 2 weeks-old chickens
# Format: ADME, organism-based, Gallus gallus
# Condition summary: chicken
Phrase the answer as number then unit, nothing more needed.

Smiles code | half-life
O=c1cnn(-c2ccc(S(=O)(=O)c3ccc(Br)cc3)cc2)c(=O)[nH]1 | 19 h

Proceeding to the next compound to report its half-life.
Notebook: `Cc1cc(-n2ncc(=O)[nH]c2=O)ccc1S(=O)(=O)c1ccc(Cl)cc1` , half-life read as 10 h
